Test system: HIV-1 NL4-3 virus
Test: Anti-HIV-1 activity, multicycle assay with HIV-1 NL4-3 in TZM-bl cells
Format: cell-based
Conditions: Human immunodeficiency virus 1, NL43, TZM-bl
Reported EC50 values for the following compounds.
// units = µM; emit number, no label

# compound, EC50, µM
rows = [
    ("COc1ccc(N(C)C(=O)[C@H](Cc2cc(F)cc(F)c2)NC(=O)c2cn(CS(=O)(=O)c3ccccc3)nn2)cc1 [I-8t]", 4.21),
]

Consider the compound COc1ccc(N(C)C(=O)[C@H](Cc2cc(F)cc(F)c2)NC(=O)c2cn(Cc3ccc(Cl)cc3)nn2)cc1 [I-8f] and give its measured EC50.
8.7

Request the reported EC50 associated with COc1ccc(N(C)C(=O)[C@H](Cc2ccccc2)NC(=O)c2cccc(-c3cn(Cc4ccc(C(N)=O)cc4)nn3)c2)cc1 [III-15d]
26.2

Recorded values, source paper PMC7034945.
